Ref: ChEMBL document CHEMBL4834405

Target: Peptidyl-prolyl cis-trans isomerase FKBP1A (Homo sapiens)
Sequence (P62942 whole entry): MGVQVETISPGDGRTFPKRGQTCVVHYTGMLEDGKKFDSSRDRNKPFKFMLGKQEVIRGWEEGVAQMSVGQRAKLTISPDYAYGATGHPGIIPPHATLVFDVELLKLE
Assay: Displacement of fluorescent tracer 5-(3-(4-((1S,5S,6S)-10-(3,5-dichlorophenylsulfonyl)-2-oxo-3-(pyridin-3-ylmethyl)-3,10-diazabicyclo[4.3.1]decan-5-yl)-1H-1,2,3-triazol-1-yl)propylcarbamoyl)-2-(6-(dimethylamino)-3-(dimethyliminio)-3H-xanthen-9-yl)benzoate from recombinant full length C-terminal FLAG-tagged FKBP12 (unknown origin) expressed in Escherichia coli BL21 ([…]) cells incubated for 30 mins by fluorescence polarisation competition binding assay
Binarize Kd at 300 nM; below is TRUE, at or above is FALSE.

// below: answered molecules
COc1ccc(CC[C@H]2OC(=O)[C@@H]3CCCCN3C(=O)[C@@H](C3CCCCC3)c3cc(OC)c(c(OC)c3)OC/C=C\COc3cccc2c3)cc1OC
FALSE
COc1ccc(CC[C@H]2OC(=O)[C@@H]3CCCCN3C(=O)[C@@H](C3CCCCC3)c3cc(OC)c(OC)c(c3)OCCC(=O)COc3cccc2c3)cc1OC
TRUE
COc1ccc(CC[C@H]2OC(=O)[C@@H]3CCCCN3C(=O)[C@@H](C3CCCCC3)c3cc(OC)c(c(OC)c3)OCC(O)C(O)COc3cccc2c3)cc1OC (mixture of isomers)
TRUE
COc1ccc(CC[C@H]2OC(=O)[C@@H]3CCCCN3C(=O)[C@@H](C3CCCCC3)c3cc(OC)c(c(OC)c3)OC/C=C/COc3cccc2c3)cc1OC
FALSE
COc1ccc(CC[C@H]2OC(=O)[C@@H]3CCCCN3C(=O)[C@@H](C3CCCCC3)c3cc(OC)c(OC)c(c3)OCCOC/C=C/COc3cccc2c3)cc1OC
TRUE

**Query** Dear reviewer, please state whether COc1ccc(CC[C@H]2OC(=O)[C@@H]3CCCCN3C(=O)[C@@H](C3CCCCC3)c3cc(OC)c(c(OC)c3)OCCCCOc3cccc2c3)cc1OC has Kd strictly beneath 300 nM.
**Result** FALSE

**Query** Dear reviewer, please state whether COc1ccc(CC[C@H]2OC(=O)[C@@H]3CCCCN3C(=O)[C@@H](C3CCCCC3)c3cc(OC)c(OC)c(c3)OC/C=C/COc3cccc2c3)cc1OC has Kd strictly beneath 300 nM.
**Result** TRUE

**Query** Dear reviewer, please state whether COc1ccc(CC[C@H]2OC(=O)[C@@H]3CCCCN3C(=O)[C@@H](C3CCCCC3)c3cc(OC)c(c(OC)c3)OCCOC/C=C\COc3cccc2c3)cc1OC has Kd strictly beneath 300 nM.
**Result** FALSE

**Query** Dear reviewer, please state whether COc1ccc(CC[C@H]2OC(=O)[C@@H]3CCCCN3C(=O)[C@@H](C3CCCCC3)c3cc(OC)c(c(OC)c3)OCCOc3cccc2c3)cc1OC has Kd strictly beneath 300 nM.
**Result** FALSE

**Query** Dear reviewer, please state whether COc1ccc(CC[C@H]2OC(=O)[C@@H]3CCCCN3C(=O)[C@@H](C3CCCCC3)c3cc(OC)c(OC)c(c3)OC[C@@H](O)[C@H](O)COc3cccc2c3)cc1OC has Kd strictly beneath 300 nM.
**Result** TRUE

**Query** Dear reviewer, please state whether COc1ccc(CC[C@H]2OC(=O)[C@@H]3CCCCN3C(=O)[C@@H](C3CCCCC3)c3cc(OC)c(OC)c(c3)OCCOCC(=O)CCOc3cccc2c3)cc1OC has Kd strictly beneath 300 nM.
**Result** TRUE

**Query** Dear reviewer, please state whether COc1ccc(CC[C@H]2OC(=O)[C@@H]3CCCCN3C(=O)[C@@H](C3CCCCC3)c3cc(OC)c(OC)c(c3)OCCCC(=O)COc3cccc2c3)cc1OC has Kd strictly beneath 300 nM.
**Result** TRUE

**Query** Dear reviewer, please state whether COc1ccc(CC[C@H]2OC(=O)[C@@H]3CCCCN3C(=O)[C@@H](C3CCCCC3)c3cc(OC)c(c(OC)c3)OCCOC/C=C/COc3cccc2c3)cc1OC has Kd strictly beneath 300 nM.
**Result** FALSE

**Query** Dear reviewer, please state whether COc1ccc(CC[C@H]2OC(=O)[C@@H]3CCCCN3C(=O)[C@@H](C3CCCCC3)c3cc(OC)c(c(OC)c3)OCCOCCCCOc3cccc2c3)cc1OC has Kd strictly beneath 300 nM.
**Result** FALSE

**Query** Dear reviewer, please state whether COc1ccc(CC[C@H]2OC(=O)[C@@H]3CCCCN3C(=O)[C@@H](C3CCCCC3)c3cc(OC)c(c(OC)c3)OCCCOCCCCOc3cccc2c3)cc1OC has Kd strictly beneath 300 nM.
**Result** FALSE

**Query** Dear reviewer, please state whether COc1ccc(CC[C@H]2OC(=O)[C@@H]3CCCCN3C(=O)[C@@H](C3CCCCC3)c3cc(OC)c(OC)c(c3)OCCCCOc3cccc2c3)cc1OC has Kd strictly beneath 300 nM.
**Result** TRUE
